molecular target: Human immunodeficiency virus type 1 reverse transcriptase (Human immunodeficiency virus 1, UniProt Q72547, Y181C); assay: Inhibition of HIV1 reverse transcriptase p66 Y181C mutant associated RNA dependent DNA polymerase activity expressed in Escherichia coli assessed as reduction in [3H]dTTP incorporation using poly(rA)/oligo(dT) as template/primer by scintillation counting analysis
Provide the recorded pIC50 for the entries that follow.
FYI, pIC50 means -log10 of a concentration in mol per litre.

## Input Could you tell me which pIC50 is on file for Cc1cc(C)cc(S(=O)(=O)c2c(C(=O)N[C@@H](C)c3ccccc3F)[nH]c3ccc(Cl)cc23)c1 ?
## Output 4.76

## Input Requested read-out: pIC50. Entry: Cc1cc(C)cc(S(=O)(=O)c2c(C(=O)N[C@H](C)C(=O)NCc3ccncc3)[nH]c3ccc(Cl)cc23)c1
## Output 4.21

## Input Quick check: pIC50 of Cc1cc(C)cc(S(=O)(=O)c2c(C(=O)N[C@H](C)c3ccccc3F)[nH]c3ccc(Cl)cc23)c1 ?
## Output 6.34

## Input Query: pIC50; subject: Cc1cc(C)cc(S(=O)(=O)c2c(C(=O)N[C@@H](C)C(=O)NCc3ccncc3)[nH]c3ccc(Cl)cc23)c1
## Output 6.06
